tested on: plasma protein; assay: Plasma protein binding, human; format: in vitro ADME; conditions: plasma, read-out: Plasma Protein Binding % bound
Note to self: values exactly at 0.09 are Criterion met. So fraction unbound at or above 0.09 is Criterion met, below is Criterion not met.

Q. Could you verify whether the entry O=C(NC(c1ccc(Cl)cc1)c1ccccn1)C1CCN(CCOc2ccccc2C(F)(F)F)CC1 (centres unmarked) shows fraction unbound of no less than 0.09?
A. Criterion not met

Q. Could you verify whether the entry O=C(NC(c1ccc(C(F)(F)F)cc1)c1ccccn1)C1CCN(CCOc2ccccc2)CC1 (centres unmarked) shows fraction unbound of no less than 0.09?
A. Criterion not met

Q. Could you verify whether the entry O=C(NC(c1ccc(Cl)cc1)c1ccccn1)C1CCN(CCOc2ccc(F)cc2)CC1 (centres unmarked) shows fraction unbound of no less than 0.09?
A. Criterion met

Q. Could you verify whether the entry O=C(NC(c1ccc(F)cc1)c1ccccn1)C1CCN(CCOc2ccccc2Cl)CC1 (centres unmarked) shows fraction unbound of no less than 0.09?
A. Criterion met

Q. Could you verify whether the entry COc1cccc(C(NC(=O)C2CCN(CCOc3ccccc3)CC2)c2ccccn2)c1 (centres unmarked) shows fraction unbound of no less than 0.09?
A. Criterion not met

Q. Could you verify whether the entry O=C(NC(c1ccc(Cl)cc1)c1ccccn1)C1CCN(CCOc2ccc3cccnc3c2)CC1 (centres unmarked) shows fraction unbound of no less than 0.09?
A. Criterion not met

Q. Could you verify whether the entry O=C(NC(c1cccc(F)c1)c1ccccn1)C1CCN(CCOc2ccccc2)CC1 (centres unmarked) shows fraction unbound of no less than 0.09?
A. Criterion not met

Q. Could you verify whether the entry O=C(NC(c1ccc(F)cc1)c1ccccn1)C1CCN(CCOc2ccccc2C(F)(F)F)CC1 (centres unmarked) shows fraction unbound of no less than 0.09?
A. Criterion not met

FYI, the data here is from patent US10752588B2.
